Details: in water, 283.15 K
value-kind: solubility (mole fraction)
// response body must contain only the number

Which solubility (mole fraction) is listed for NC(=O)N/N=C/c1ccc([N+](=O)[O-])o1 ?
1.62e-05

====

Settings: in n-propanol, 293.15 K
value-kind: solubility (mole fraction)
Field format: numeric only.

Which solubility (mole fraction) value belongs to NC(=O)N/N=C/c1ccc([N+](=O)[O-])o1 ?
0.000149

====

Settings: in DMF, 283.15 K
value-kind: solubility (mole fraction)
Reply with just the number.

Any idea what solubility (mole fraction) was measured for NC(=O)N/N=C/c1ccc([N+](=O)[O-])o1 ?
0.0227

====

Conditions: in formamide, 278.15 K
value-kind: solubility (mole fraction)
# output: bare number, no unit

Which solubility (mole fraction) is reported for this compound? NC(=O)N/N=C/c1ccc([N+](=O)[O-])o1
0.00169
